Reference for the values: ChEMBL document CHEMBL2169788

test system: Plasmodium falciparum; experiment: Antiplasmodial activity against Plasmodium falciparum 3D7 infected in human erythrocytes assessed as inhibition of [3H]hypoxanthine incorporation after 48 hrs; type: functional, organism-based
# EC50 per record follows
Write the number in µM without appending the unit.

Worked set:
COMPOUND STRUCTURE STRING	TESTED ON	REPORTED PROPERTY	UNITS SYMBOL	VALUE
Cc1nc(Nc2ccc3ccccc3c2)c2nc[nH]c2n1	Plasmodium falciparum	EC50	µM	2.2
Cc1nc(Nc2ccc3ncccc3c2)c2nc[nH]c2n1	Plasmodium falciparum	EC50	µM	3.2
Cc1cc(Nc2ccc3ccccc3c2)n2nccc2n1	Plasmodium falciparum	EC50	µM	0.91
Cc1cc(Nc2ccc3ccccc3c2)n2ncnc2c1	Plasmodium falciparum	EC50	µM	5.2
Cc1nc(Nc2ccc3cc4ccccc4cc3c2)c2nc[nH]c2n1	Plasmodium falciparum	EC50	µM	3.2

Q: Which EC50 is listed for `Cc1cc(Nc2ccc(C(F)(F)F)cc2)n2ccnc2n1` ?
A: 0.32

Q: Then `Cc1cc(Nc2ccc3ccccc3c2)n2ccnc2n1` ?
A: 0.19

* * *

assay: Plasma concentration in Swiss mouse at 10 mg/kg, po up to 4 hrs; assay type: ADME, organism-based; parameters: dose 10 mg/kg, route oral
REPORTED PROPERTY: concentration at 4 h

Q: Which concentration at 4 h is listed for `Cc1cc(Nc2ccc(C(F)(F)F)cc2)n2ccnc2n1` ?
A: > 1000 nM

* * *

test: Cmax in Swiss mouse at 10 mg/kg, po; format: ADME, organism-based; set-up: dose 10 mg/kg, route oral; conditions: in vivo
REPORTED PROPERTY: Cmax (µM)
Write the number in µM without appending the unit.

Q: Which Cmax is listed for `Cc1cc(Nc2ccc(C(F)(F)F)cc2)n2ccnc2n1` ?
A: 3.9

* * *

# IC50 per record follows
assay: Inhibition of Plasmodium berghei DHODH expressed in Escherichia coli DH5alpha using 2,6-dichoroindophenol substrate by spectrophotometric analysis

Worked set:
COMPOUND STRUCTURE STRING	IC50
Cc1nc(Nc2ccc3cc4ccccc4cc3c2)c2nc[nH]c2n1	> 10 µM
Cc1cc(NC(=O)c2ccccc2)n2ncnc2n1	> 100 µM
Cc1cc(NC(=O)c2ccc(C(F)(F)F)cc2)n2ncnc2n1	> 100 µM

Now consider the entry below.
Q: Which IC50 is listed for `Cc1cc(Nc2ccc3ccccc3c2)c2nncn2n1` ?
A: > 50 µM

* * *

# IC50 per record follows
target: Dihydroorotate dehydrogenase (Plasmodium falciparum)
Sequence (Q54A96 whole entry): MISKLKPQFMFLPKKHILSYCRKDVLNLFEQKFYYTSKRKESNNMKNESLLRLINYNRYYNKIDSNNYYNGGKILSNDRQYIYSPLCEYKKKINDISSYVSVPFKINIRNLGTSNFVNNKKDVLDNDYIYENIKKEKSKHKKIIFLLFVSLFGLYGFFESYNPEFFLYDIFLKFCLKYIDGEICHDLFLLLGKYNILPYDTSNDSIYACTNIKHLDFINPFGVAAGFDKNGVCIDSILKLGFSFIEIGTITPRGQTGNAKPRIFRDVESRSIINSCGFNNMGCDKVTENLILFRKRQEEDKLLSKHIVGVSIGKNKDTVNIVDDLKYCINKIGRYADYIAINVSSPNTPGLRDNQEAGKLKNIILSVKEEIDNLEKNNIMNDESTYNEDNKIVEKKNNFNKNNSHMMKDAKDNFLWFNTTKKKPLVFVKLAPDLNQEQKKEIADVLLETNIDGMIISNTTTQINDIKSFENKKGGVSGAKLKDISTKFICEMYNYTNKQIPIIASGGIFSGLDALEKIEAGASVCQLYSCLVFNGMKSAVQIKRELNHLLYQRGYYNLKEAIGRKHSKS

Q: Which IC50 is listed for `Cc1cc(NC(=O)c2ccc(C(F)(F)F)cc2)n2ncnc2n1` ?
A: > 100 µM

Q: Then `Cc1nc(Nc2ccc3ncccc3c2)c2nc[nH]c2n1` ?
A: > 25 µM

Q: Then `Cc1cc(NC(=O)c2ccccc2)n2ncnc2n1` ?
A: > 100 µM

Q: Then `Cc1cc(Nc2ccc3ccccc3c2)c2nncn2n1` ?
A: > 50 µM

Q: Then `Cc1nc(Nc2ccc3ccccc3c2)c2cn[nH]c2n1` ?
A: > 100 µM

Q: Then `Cc1nc(Nc2n[nH]cc2C#N)c2nc[nH]c2n1` ?
A: > 100 µM

* * *

test system: Plasmodium falciparum; assay: Antiplasmodial activity against Plasmodium falciparum 3D7 infected in human erythrocytes assessed as inhibition of [3H]hypoxanthine incorporation after 48 hrs; format: functional, organism-based
# EC50 per record follows

Worked set:
COMPOUND STRUCTURE STRING	TESTED ON	EC50
Cc1nc(Nc2cnc3ccccc3c2)c2nc[nH]c2n1	Plasmodium falciparum	> 10 µM
Cc1nc(Nc2n[nH]cc2C#N)c2nc[nH]c2n1	Plasmodium falciparum	> 25 µM
Cc1cc(NC(=O)c2ccc(C(F)(F)F)cc2)n2ncnc2n1	Plasmodium falciparum	> 50 µM
Cc1nc(Nc2ccc3ccccc3c2)c2cn[nH]c2n1	Plasmodium falciparum	> 12.5 µM
Cc1cc(Nc2ccc3ccccc3c2)c2nncn2n1	Plasmodium falciparum	> 5 µM

Q: Which EC50 is listed for `Cc1cc(NC(=O)c2ccccc2)n2ncnc2n1` ?
A: > 100 µM
